test: solvent given as SMILES; conditions: in CC#N
Parameter fluorescence lifetime: see the listing below.
measurement name: fluorescence lifetime (ns)

COc1ccc(C#Cc2ccc(C#Cc3ccc(P(=O)(c4ccc(C#Cc5ccc(C#Cc6ccc(OC)cc6)cc5)cc4)c4ccc(C#Cc5ccc(C#Cc6ccc(OC)cc6)cc5)cc4)cc3)cc2)cc1 = 1.14
COc1cc(OC)c2c(c1)C(=O)c1ccc(OC)cc1-2 = 1.2
Cc1c2ccc3c(C)[n+](C)ccc3c2cc[n+]1C = 5.7
COc1ccc(C2=[O+][B-](F)(F)OC(c3ccc4c(c3)Cc3ccccc3-4)=C2)cc1 = 1.6
CN(C)c1ccc2nc3c(cc2c1)c(-c1ccccc1)nn3-c1ccccc1 = 24.5
O=P1(c2ccccc2)C(c2cc(C(F)(F)F)cc(C(F)(F)F)c2)=Cc2c3ccc4cccc5ccc(c6cc(-c7ccccc7)n1c26)c3c45 (centres undefined) = 3.7
O=C1c2ccccc2-c2ccc(N3CCN(c4ccccc4)CC3)c3cccc1c23 = 0.03
O=c1cc[nH]c(=O)[nH]1 = 0.0001
COC(=O)c1ccc(C#Cc2ccccc2)cc1 = 0.52
COc1c2ccccc2c(-c2ccccc2)c2ccccc12 = 1.38
COc1ccc2c(c1)C(=O)c1cc(OC)cc(OC)c1-2 = 0.6
N#C/C(=C\c1ccc(C#N)cc1)c1nc(-c2ccc(Cl)cc2)c(-c2ccccc2)s1 = 2.48
Nc1ccc2c(c1)C(=O)c1ccc(N)cc1C2=O = 1.85
Nc1ccc2c(-c3ccccc3C(=O)[O-])c3ccc(=[NH2+])cc-3oc2c1 = 4.03
Nc1cccc2cn[nH]c12 = 4.63
[O-]c1c(-c2nc3ccccc3s2)cc2ccc3cccc4ccc1c2c34 = 3.81
Nc1ccc2c(c1)C(=O)NC2=O = 14
Cc1ccc2nc3[nH]c(=O)[nH]c(=O)c3nc2c1 = 0.6
NS(=O)(=O)c1ccc(N2N=C(c3ccc(O)cc3)CC2c2ccc([N+](=O)[O-])cc2)cc1 (centres undefined) = 2.21

---

assay: solvent given as SMILES; details: in ClCCl
Recorded fluorescence lifetime for the following compounds
measurement name: fluorescence lifetime

CC(C)(C)c1ccc(-c2nc3c4ccc(-c5cccc6ccccc56)cc4c4cc(-c5cccc6ccccc56)ccc4c3n2-c2ccc(C(C)(C)C)cc2)cc1 = 7.4 ns
COC(=O)c1cc(=O)n(C)c2cc(-c3ccc(Oc4ccccc4)cc3)sc12 = 2.83 ns
CC(C)(C)c1ccc(-c2c3c(c(-c4ccc(C(C)(C)C)cc4)c4cc5ccccc5cc24)Cc2c(c(-c4ccc(C(C)(C)C)cc4)c4cc5ccccc5cc4c2-c2ccc(C(C)(C)C)cc2)C3)cc1 = 2.35 ns
C1=Cc2nc1c(-c1cccs1)c1ccc([nH]1)c(-c1cccs1)c1nc(c(-c3cccs3)c3ccc([nH]3)c2-c2cccs2)C=C1 = 9.27 ns
CC1=CC(C)=[N+]2C1=Cc1c(C)cc(C)n1[B-]2(F)F = 5.73 ns
COc1ccc(-c2nc3ccccc3nc2/C=C/N2CCCC2)s1 = 3.28 ns
COc1cc2c(cc1-c1ccccc1)Cc1c3c(c4c(c1-2)-c1cc(OC)c(-c2ccccc2)cc1C4)C(=O)N(CCC(C)C)C3=O = 5.64 ns

---

Recorded fluorescence lifetime by entry
test: solvent given as SMILES; settings: in ClC(Cl)(Cl)Cl
measurement name: fluorescence lifetime (ns)

Cc1ccc(N(c2ccc(C)cc2)c2ccc(-c3ccc4c(c3)C(=O)c3ccccc3C4=O)cc2)cc1 = 9.25
O=c1oc2ccccc2cc1-c1nc2ccccc2o1 = 3.17
COc1ccc(C2=CC(c3ccc(OC)cc3)=[O+][B-](C(C)=O)(C(C)=O)O2)cc1 = 2.1

---

assay: solvent given as SMILES; conditions: in CC#N
measurement name: fluorescence lifetime (ns)

COc1ccc(-c2ccc(-c3ccc(C#N)s3)s2)cc1 = 0.97
Nc1ccc2c(c1)Cc1ccccc1-2 = 3.2
C1C[C@H]2CC[C@@H]1N=N2 = 434
N#Cc1ccc(/C=C/c2ccc3ccc4cccc5ccc2c3c45)cc1 = 1.68

---

assay: solvent given as SMILES; conditions: in C1COCCO1
Each entry below carries its reported fluorescence lifetime.
measurement name: fluorescence lifetime (ns)

O=C1c2ccccc2-c2ccc(N3CCN(c4ccccc4)CC3)c3cccc1c23 = 8.98
Cc1cc2c(o1)c(C)cc1ccc(=O)oc12 = 0.02
O=C1/C(=C2\Sc3ccccc3C2=O)Sc2ccccc21 = 12.4
Cc1cc(=O)c2ccc(N)cc2o1 = 0.48
Cc1ccc(C2=C3C=CC(/C=C/c4ccccc4)=[N+]3[B-](F)(F)n3c(/C=C/c4ccccc4)ccc32)cc1 = 4.31
N#Cc1cc2ccccc2[nH]1 = 2.9
C#CCN1C(=O)/C(=C/c2cc(OC(C)C)ccc2OC(C)C)N=C1C = 1.66
Cc1ccc(C2CC(c3ccc(O)cc3)=NN2c2ccc(S(N)(=O)=O)cc2)cc1 (centres undefined) = 2.41
COc1cc(N(c2ccc(C=C(C#N)C#N)c(OC)c2)c2ccc(C=C(C#N)C#N)c(OC)c2)ccc1C=C(C#N)C#N = 0.65
CCC12C(=C3C(=C4c5ccc(-c6ccc(C(C)=O)s6)cc5S(=O)(=O)C41CC)C(F)(F)C(F)(F)C3(F)F)c1ccc(-c3ccc(C(C)=O)s3)cc1S2(=O)=O (centres undefined) = 1.9
CCCCC1=Cc2c3ccc4cccc5ccc(c6cc(-c7ccccc7)n(c26)P1(=O)c1ccccc1)c3c45 (centres undefined) = 1.8
CC\C=C/C=C/C=C/C=C\CCCCCCCC(=O)O = 3.2
CN1CCN(c2ccc3c4c(cccc24)C(=O)c2ccccc2-3)CC1 = 10.3
CCOC(=O)c1ccc(NC(=O)COc2cc3c4c([nH]c3c(C)c2C)C(=O)CCC4)cc1 = 1.23

---

assay: solvent given as SMILES; conditions: in O
Below is a list of entries, each paired with its recorded fluorescence lifetime value.
measurement name: fluorescence lifetime

O=S(=O)([O-])c1cc(S(=O)(=O)Cl)ccc1C1=c2cc3c4c(c2Oc2c1cc1c5c2CCCN5CCC1)CCC[N+]=4CCC3 = 4.2 ns
Nc1ccc2c(-c3ccccc3C(=O)[O-])c3ccc(=[NH2+])cc-3oc2c1 = 4.28 ns
Nc1cccnc1 = 21.1 ns
CS1(C)C(/C=C/C2=C(c3ccc(C(=O)O)cc3)C(=C/C=C3/N(CCCCS(=O)(=O)[O-])c4ccccc4S3(C)C)/CCC2)=[N+](CCCCS(=O)(=O)[O-])c2ccccc21 = 0.33 ns
CCNc1ccc2c(c1)C(C)(C)C(=O)C=C2 = 3.9 ns
Cc1c(OCC(=O)O)cc2c3c([nH]c2c1C)C(=O)CCC3 = 1.77 ns

---

assay: solvent given as SMILES; details: in C1COCCO1
measurement name: fluorescence lifetime (ns)

COC(=O)c1c2ccccc2nc2ccccc12 = 0.9
Cc1ccc(C2=C3C=CC(/C=C/c4ccccc4)=[N+]3[B-](F)(F)n3c(Cl)ccc32)cc1 = 3.68
O=P1(c2ccccc2)C(c2cc(C(F)(F)F)cc(C(F)(F)F)c2)=Cc2c3ccc4cccc5ccc(c6cc(-c7ccccc7)n1c26)c3c45 (stereo not drawn) = 2.6
Cc1c(OCC(=O)O)cc2c3c([nH]c2c1C)C(=O)CCC3 = 0.54
O=C1/C(=C2\Sc3ccc(S(=O)(=O)Cl)cc3C2=O)Sc2ccc(S(=O)(=O)Cl)cc21 = 12
COc1ccc(C#Cc2ccc(C#Cc3ccc(P(=O)(c4ccccc4)c4ccccc4)cc3)cc2)cc1 = 0.73
COc1cc(N(c2ccccc2)c2ccc(C=C(C#N)C#N)c(OC)c2)ccc1C=C(C#N)C#N = 0.925
CC(C)(C)NS(=O)(=O)c1ccc2c(c1)C(=O)/C(=C1\Sc3ccc(S(=O)(=O)NC(C)(C)C)cc3C1=O)S2 = 12.4
CN(C)c1ccc(/C=C2\CC/C(=C\c3ccc(N(C)C)cc3)C2=O)cc1 = 0.5
CN(C)c1ccc(/C=C/c2nc3c4ccccc4c4ccccc4c3[nH]2)cc1 = 0.484
N#Cc1cccc2[nH]ccc12 = 5.3
c1ccc(-c2nc(-c3ccc(-c4ccc(-c5nc(-c6ccccc6)c(-c6ccccc6)o5)cc4)cc3)oc2-c2ccccc2)cc1 = 0.95
CC1(C)c2ccccc2N(c2ccc(S(=O)(=O)c3ccc(N4c5ccccc5C(C)(C)c5ccccc54)cc3)cc2)c2ccccc21 = 21

---

test: solvent given as SMILES; details: in ClC(Cl)Cl
measurement name: fluorescence lifetime (ns)

c1coc(-c2nc3ccccc3[nH]2)c1 = 0.6
CN(C)c1ccc(/C=C/c2ccc(-c3nnc(-c4ccc(-c5cc6ccccc6s5)cc4)o3)cc2)cc1 = 0.53
CCCCCCC(CCCCCC)N1C(=O)c2cccc3c(-c4ccc(C#N)cc4)ccc(c23)C1=O = 1.34

---

Each entry below carries its recorded fluorescence lifetime.
assay: solvent given as SMILES; settings: in Cc1ccccc1
measurement name: fluorescence lifetime (ns)

COC(=O)/C(C#N)=c1\s/c(=c2/s/c(=C(/C#N)C(=O)OC)c3cc(-c4ccc(C(F)(F)F)cc4)sc23)c2sc(-c3ccc(C(F)(F)F)cc3)cc12 = 2.32
COc1ccc(C2=C3C(C)=CC(C)=[N+]3[B-](F)(F)n3c(C)cc(C)c32)cc1 = 4.86
CCCCN1C(=O)c2cc(Oc3ccc(C(C)(C)C)cc3)c3c4c(Oc5ccc(C(C)(C)C)cc5)cc5c(=O)[nH]/c(=C\c6ccccn6)c6cc(Oc7ccc(C(C)(C)C)cc7)c(c7c(Oc8ccc(C(C)(C)C)cc8)cc(c2c37)C1=O)c4c56 = 3.57
c1ccc2c(c1)c1ccccc1n2-c1ccc2cc(-c3ccc(-c4ccc(-c5cc6ccc(-n7c8ccccc8c8ccccc87)cc6o5)cc4)cc3)oc2c1 = 0.97
CCC(=O)c1ccc2cc(N(C)C)ccc2c1 = 2.33
Cc1ccc2c(c1)C(=O)c1ccncc1-2 = 6.6
CC1=C(c2cccs2)C(C)=[N+]2C1=C(c1ccccc1)c1c(C)c(-c3cccs3)c(C)n1[B-]2(F)F = 3.4
COc1ccc(N2c3ccc4ccccc4c3-c3c4ccccc4cc[n+]3[B-]2(c2ccccc2)c2ccccc2)cc1 = 0.25
C(#Cc1ccc(-n2c3ccccc3c3ccccc32)cc1)c1ccccc1 = 1.45
CCCCCCC(CCCCCC)n1c(=O)c2c3ccc4cccc5c6cccc7ccc(c2c1=O)c(c76)c3c45 = 9.2
COc1cc(N(c2ccc(C=C(C#N)C#N)c(OC)c2)c2ccc(C=C(C#N)C#N)c(OC)c2)ccc1C=C(C#N)C#N = 0.03
CCCCC(CC)CN1C(=O)C2=C(c3ccc(-c4ccc(C5=C6C(C)=CC(C)=[N+]6[B-](F)(F)n6c(C)cc(C)c65)cc4)s3)N(CC(CC)CCCC)C(=O)C2=C1c1cccs1 (configuration not stated) = 3.87
CC(=O)Nc1ccc2c3c(cccc13)C(=O)c1ccccc1-2 = 2.8
CCCN1/C(=C\c2c(-c3ccc(N(C)C)cc3)c(=O)c2=O)C=Cc2ccccc21 = 2.46
F[B-]1(F)OC(c2ccc(C(F)(F)F)cc2)=Cc2cc(Cl)nc[n+]21 = 0.21
COc1ccc(-c2nc3ccccc3nc2/C=C/N2CCCC2)s1 = 1.25
Fc1c(-n2c3ccccc3c3ccccc32)c(F)c(-n2c3ccccc3c3ccccc32)c(-c2nnc(-c3ccccc3)o2)c1-n1c2ccccc2c2ccccc21 = 3.9
CN(C)c1ccc(-c2c(/C=C3/C=Cc4ccccc4N3Cc3ccccc3)c(=O)c2=O)cc1 = 2.13
c1ccc([B-]2(c3ccccc3)Oc3ccc4ccccc4c3-c3c4ccccc4cc[n+]32)cc1 = 9.47
CCC1(CC)c2cc(B(c3c(C)cc(C)cc3C)c3c(C)cc(C)cc3C)ccc2-c2ccc(N(c3ccccc3)c3ccccc3)cc21 = 1.8
CCCCCCCCC1(CCCCCCCC)c2ccccc2-c2ccc(-c3nnc(-c4ccc(-n5c6ccc(C(C)(C)C)cc6c6cc(C(C)(C)C)ccc65)cc4)o3)cc21 = 1.7
O=C1c2ccccc2C(=O)C1C1C(=O)c2c3ccccc3cc3cc4ccccc4c1c23 (configuration not stated) = 14.1
O=C1c2ccccc2-c2ccc(N3CCN(c4ccccc4)CC3)c3cccc1c23 = 9.06
Cc1nc(-c2ccc(-n3c4ccccc4c4ccccc43)cc2)cc(-c2ccc(-n3c4ccccc4c4ccccc43)cc2)n1 = 2.05
CC1=C(c2cccs2)C(C)=[N+]2C1=C(c1ccc(OS(=O)(=O)c3ccc([N+](=O)[O-])cc3[N+](=O)[O-])cc1)c1c(C)c(-c3cccs3)c(C)n1[B-]2(F)F = 3.6
CCOc1ccc(/C=C/C=C/C=C/c2ccc([N+](=O)[O-])cc2)cc1 = 1.5
CCOC(=O)CN1C(=O)C2=C(c3ccc(C#N)cc3)N(CC(=O)OCC)C(=O)C2=C1c1ccc(C#N)cc1 = 6.48
